# TARGET DESC: T1, human NK2 Receptor (human, UniProt P21452 1-398)
# T1 sequence (looked up): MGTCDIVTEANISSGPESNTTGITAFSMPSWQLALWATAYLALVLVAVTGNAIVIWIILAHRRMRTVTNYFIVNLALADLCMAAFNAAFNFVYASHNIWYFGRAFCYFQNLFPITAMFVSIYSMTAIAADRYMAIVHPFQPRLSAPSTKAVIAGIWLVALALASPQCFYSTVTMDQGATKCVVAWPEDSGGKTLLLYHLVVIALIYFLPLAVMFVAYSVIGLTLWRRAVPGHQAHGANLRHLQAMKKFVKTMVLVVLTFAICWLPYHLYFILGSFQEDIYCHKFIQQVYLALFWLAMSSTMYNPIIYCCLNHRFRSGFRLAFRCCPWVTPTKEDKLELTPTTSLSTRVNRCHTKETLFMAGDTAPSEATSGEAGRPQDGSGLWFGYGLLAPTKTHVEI
# ASSAY NAME: cell-based or functional assay
Catalogue of binders with associated hNK2 selectivity ratio (EC50 hNK1R/hNK2R)
Write the number in ratio without appending the unit.

Consider the reported hNK2 selectivity ratio (EC50 hNK1R/hNK2R) for these binders:
BINDER | EXPERIMENTAL RESULT
DRFVALM (HELM PEPTIDE1{D.R.F.V.[bAla].L.M.[am]}$$$$V2.0; N-terminus assumed; SMILES CSCC[C@H](NC(=O)[C@H](CC(C)C)NC(=O)CCNC(=O)[C@@H](NC(=O)[C@H](Cc1ccccc1)NC(=O)[C@H](CCCNC(=N)N)NC(=O)[C@@H](N)CC(=O)O)C(C)C)C(N)=O, synthetic heptapeptide analog of neurokinin A, Fmoc solid-phase synthesis; also called Compound I; Cmpd I) [Heptapeptide analog I, Asp-Arg-Phe-Val-(β-Ala)-Leu-Met-NH2] | 12
DRFVALX (HELM PEPTIDE1{D.R.F.V.[bAla].L.[Nle].[am]}$$$$V2.0; N-terminus assumed; SMILES CCCC[C@H](NC(=O)[C@H](CC(C)C)NC(=O)CCNC(=O)[C@@H](NC(=O)[C@H](Cc1ccccc1)NC(=O)[C@H](CCCNC(=N)N)NC(=O)[C@@H](N)CC(=O)O)C(C)C)C(N)=O, synthetic heptapeptide analog of neurokinin A, Fmoc solid-phase synthesis; also called Compound K; Cmpd K) [Heptapeptide analog K, Asp-Arg-Phe-Val-(β-Ala)-Leu-Nle-NH2] | 25
DRFVGLX (HELM PEPTIDE1{D.R.F.V.G.L.[Nle].[am]}$$$$V2.0; N-terminus assumed; SMILES CCCC[C@H](NC(=O)[C@H](CC(C)C)NC(=O)CNC(=O)[C@@H](NC(=O)[C@H](Cc1ccccc1)NC(=O)[C@H](CCCNC(=N)N)NC(=O)[C@@H](N)CC(=O)O)C(C)C)C(N)=O, synthetic heptapeptide analog of neurokinin A, Fmoc solid-phase synthesis; also called Compound J; Cmpd J) [Heptapeptide analog J, Asp-Arg-Phe-Val-Gly-Leu-Nle-NH2] | 9

// below: hNK2 selectivity ratio (EC50 hNK1R/hNK2R) requested for another binder
# query: hNK2 selectivity ratio (EC50 hNK1R/hNK2R) of entry DRFVGLM (HELM PEPTIDE1{D.R.F.V.G.[meL].M.[am]}$$$$V2.0; N-terminus assumed; SMILES CSCC[C@H](NC(=O)[C@H](CC(C)C)N(C)C(=O)CNC(=O)[C@@H](NC(=O)[C@H](Cc1ccccc1)NC(=O)[C@H](CCCNC(=N)N)NC(=O)[C@@H](N)CC(=O)O)C(C)C)C(N)=O, synthetic heptapeptide analog of neurokinin A, Fmoc solid-phase synthesis; also called Compound C; Cmpd C) [Heptapeptide analog C, Asp-Arg-Phe-Val-Gly-(NMe-Leu)-Met-NH2]
2
